Entries annotated with measured normalized RNA/DNA level with ligand (log10)
B1: library; a variant is named by its letters at N, in order (parent)
chain: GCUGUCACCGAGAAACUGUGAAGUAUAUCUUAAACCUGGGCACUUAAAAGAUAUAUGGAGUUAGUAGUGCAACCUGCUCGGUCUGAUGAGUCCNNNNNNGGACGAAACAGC

variants of: B1; test: normalized RNA/DNA level with ligand (relative to sTRSVctl = 100) (log10 (% of sTRSVctl)); HEK293T; ligand: cyclic di-GMP (c-di-GMP-II aptamer); ligand concentration (+) RNA-Seq: 1 mM; higher = less ribozyme self-cleavage, higher mRNA level; conditions: reporter: mCherry (pCS4076), ligand present: yes
Please state the value as a number alone, without comment.

mutations | measured
AGUUGA | 1.75
UGCACC | 1.84
UCUGUC | 1.87
UGCGGA | 1.78
UCAAAU | 1.71

Q: Name the recorded normalized RNA/DNA level with ligand (log10) for UGCCUA .
A: 1.86

Q: Name the recorded normalized RNA/DNA level with ligand (log10) for GCCUGA .
A: 1.77

Q: Name the recorded normalized RNA/DNA level with ligand (log10) for UCGAGC .
A: 1.84

Q: Name the recorded normalized RNA/DNA level with ligand (log10) for CGACCU .
A: 1.71

Q: Name the recorded normalized RNA/DNA level with ligand (log10) for GCUCUU .
A: 1.82
